test: protein stability index of a GFP-peptide fusion (GPS, HEK-293T) (PSI 1-6); higher = more stable; conditions: treatment: DMSO; c terminus: a fixed tail appended;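 note: 24-mer peptide tiles fused after GFP, lentivirally expressed, FACS-sorted into six equal bins by GFP/DsRed ratio, decoded by Illumina sequencing, PSI is the read-weighted mean bin number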
Class Yes: protein stability index at least 3. Class No: protein stability index below 3.

- EEKKPGELKRLVESRRQQILREFE [TRIM39]: Yes
- SSSYAGQFRVIGPRHPIRALVGDE [MOG]: Yes
- RRTYLGGAAGRSQEPEVPCAAVLP [RSPH3]: Yes

Can YDITKEETFSTLKNWVKELRQHGP [RAB22A] be said to have protein stability index at or above 3? No

Given the entry MPLEQRSQHCKPEEGLEARGEALG [MAGEA3] , answer whether its protein stability index meets or surpasses 3. Yes

In plain terms: is recorded protein stability index at least 3 for KLASHTRDTTGVSQMFPSSKARTK [FBF1] ? Yes

Quick check: does DNEDSELNGDYGENIYPYEEDKDE [MIA2] have protein stability index greater than or equal to 3? Yes

Assess whether reported protein stability index for HGQENIVRILLRRGVDVSLQGKDA [RIPK4] sits at 3 or higher. No

* * *

test: protein stability index of a GFP-peptide fusion (GPS, HEK-293T) (PSI 1-6); higher = more stable; conditions: treatment: DMSO; c terminus: a fixed tail appended
protein stability index values by entry

* ECPTCGHSYNVTQRRPRVLSCLHS [RNF208] | 3.22

Return protein stability index (reported value) for this sequence: KGHNTPKDIAHFWELGGGTSLLDL [DYNC2LI1] 3.02

# return recorded protein stability index for input GTNEALLRQLRELEEQFALEAGGY [PRPH] 4.07

Item FCPLSLWRWQLYAAQSTKSPWNFL [CLPTM1] : provide protein stability index 2.66

Report protein stability index for PCSKAVMSQALKATFSGFKKEQRR [ETS2] 3.15

Answer with the recorded protein stability index of LSTIEELIKDAIVSTQPAMMVNLR [C2CD2L] only. 2.2

Tell me its protein stability index given QQRPHPRSHSREPRAERKCPRIAP [ELOA2] as the entry. 4.49

Provide measured protein stability index value, entry: SPGKQPGENSDCHRDSSQAIPITE [ZNF8] 5.4

Identify protein stability index associated with the sequence VAAALRYLQIFATRRSCIDESQIS [FAM189A2] 2.37

In one line, give reported protein stability index of the entry PPRGAVERHSDLPPLNPTSWWADL [SPNS1] . 3.28

* * *

assay: protein stability index of a GFP-peptide fusion (GPS, HEK-293T) (PSI 1-6); higher = more stable; conditions: treatment: MLN4924 1 uM, 8 h; c terminus: a fixed tail appended
Entries and their protein stability index values follow.
Would you mind answering with just the numeric figure?

# example entries with known answers
• HVTDPLIGCKKPVSASGKEMDWAQ [SMG5] = 4.04
• CHDKYTKIFNDFKDRMKSDHKRET [ZMYND11] = 3.9

# ---- query sequence ----
Provide only the value of recorded protein stability index for EVLKVQTHLENPTRYHLQQARRQQ [TFE3] 3.91

* * *

Recorded protein stability index values for a group of sequences are listed next.
assay: protein stability index of a GFP-peptide fusion (GPS, HEK-293T) (PSI 1-6); higher = more stable; conditions: treatment: MLN4924 1 uM, 8 h; c terminus: a fixed tail appended
Reply briefly: the number, and no unit.

* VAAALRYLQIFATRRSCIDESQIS [FAM189A2] | 2.41
* TQDSARVNPQDGTNTLTRIAENGV [EHMT1] | 5.1
* FFVVETLCIIWFSFELLVRFFACP [KCNA3] | 2.74
* SYMRNENVISELNIEDYFSHHLAV [FBXO39] | 2.4

Answer with the recorded protein stability index for the sequence listed here: SSSYAGQFRVIGPRHPIRALVGDE [MOG] 3.48

Read the entry QESDQTEEHESGIEQFSESHAIHV [IQUB] and write its reported protein stability index. 5.45

Name the recorded protein stability index of the sequence listed here: GNIIAHASTTRLYLRKGRGETRIC [RAD51] 3.16

State its protein stability index: VLDLRKNSHQDFWTVWSGNRASLY [PRAME] 2.3

For the sequence YVRDRADLNKDKPVIPAAALAGYT [ETS1] , report protein stability index. 3.35

Complete the entry with protein stability index for FESHDLLRKGFSCVKNELLPSHPL [POMP] 3.05

Report measured protein stability index; entry is EMLREVDLNGDGTVDFDEFVMMLS [CABP4] 4.17

For the sequence NIYVHDLLTFQQITTVSKAKGASL [VPS39] , give its measured protein stability index value. 2.27

Answer with reported protein stability index of CIRLWKYALDMQQSNLEPLSPMTA [FEM1A] 2.34

Note down protein stability index recorded for PLSSDIQVITQTGVPGQPLNFKAE [PTPRD] 4.51

Input HVLEGLFRTDPEAKVKLVFVEDQA [ZSWIM9] , output reported protein stability index. 2.74

Tell me protein stability index reported for MTSTGQDSTTTRQRRSRQNPQSPP [HDAC6] 5.4

Identify protein stability index associated with the sequence ECIYIIEAAPRQCIELYFDEKYSI [NETO1] 2.95

* * *

Measured protein stability index, listed per entry.
assay: protein stability index of a GFP-peptide fusion (GPS, HEK-293T) (PSI 1-6); higher = more stable; conditions: treatment: DMSO; c terminus: a fixed tail appended
Lab note: jot down the number only; don't add units.

- LRKHRELCDVVLVVGAKKIYAHRV [KLHL20]: 2.67

Give reported protein stability index value for ITALLNVSRRTSEACMTHLHYKWI [DUSP5] 2.75

* * *

assay: protein stability index of a GFP-peptide fusion (GPS, HEK-293T) (PSI 1-6); higher = more stable; conditions: treatment: MLN4924 1 uM, 8 h; c terminus: a fixed tail appended
REPORTED_METRIC: protein stability index
Write the value as a bare number.

- PSAILRTPESTKPGPVCQPPVSQS [ANKRD40]: 4.45
- VEISRRLRHSNPRADPLVCATGLL [SPNS1]: 2.31
- SPNPFPEISRGEYLYTYDSQITDS [ZNF8]: 4.35
- PHGTLRVCTISSTGPLQPQPKKPE [PKD2L1]: 4.5
- AGSKVKDMAGDWHWALRVTPGLGV [SPNS1]: 2.1

Complete the entry with protein stability index for AHEVLQELRDISSMAMEYFDEKIV [FBXO28] 3.26

Output measured protein stability index for this item: IQSKDGKSPLHMTAVHGRFTRSQT [ANKRD44] 3.9

* * *

assay: protein stability index of a GFP-peptide fusion (GPS, HEK-293T) (PSI 1-6); higher = more stable; details: treatment: DMSO; c terminus: a fixed tail appended
REPORTED_METRIC: protein stability index

• ERENVAVAKLQESQPGNAVIDKET [SDE2] = 5.37
• GGQDGLGAPKDQQQPPQQQPSQQQ [KLHL14] = 5.36
• MGPDEYEEMEEEEEEEEEEDEDDD [FBXO3] = 5.42
• YRFASAGDDGIVVVWNAQTGEKLL [WDR41] = 2.43
• SLVAILLVFLITAILVKVQLDALP [SLC29A1] = 2.35

Using the record for ILGRGLQEYQLPYQRVLPLPIFTP [TCAP] , state its measured protein stability index. 2.25

Give a short answer stating reported protein stability index for PYIPPHAALCLEVTLKTAVDGPDL [FKBP8] . 2.32

Please list protein stability index recorded for the sequence SSSKGTIRLCDMRASALCDRHTKF [PPP2R2B] 3.01

Indicate its recorded protein stability index; the sequence in question is NRGLILYRLGYFDDALEDFKKVLD [TTC32] 2.05

Please indicate protein stability index recorded for NKPTMSFKDYIQERSDPVEQGKPV [ETS2] 4.75

* * *

experiment: protein stability index of a GFP-peptide fusion (GPS, HEK-293T) (PSI 1-6); higher = more stable; settings: treatment: MLN4924 1 uM, 8 h; c terminus: a fixed tail appended
REPORTED_METRIC: protein stability index
Lab note: jot the number down without any unit.

Example entries and their recorded answers appear below.
• PPEQGKIFIARRSLLDELLEVDHI [SOAT1] = 2.93
• PANLYVRELREVRRVPPRFSIPPT [PTPRD] = 3.05
• KRKMHLVFEYCDHTLLNELERNPN [CDKL4] = 2.51

Consider the sequence NVEDEAETKKVLGLQDTITAELVV [PALM] . State its measured protein stability index. 4.25

Look up and report measured protein stability index for this entry: TNTRSDLDVFGRGDNISDVSKFLE [LUC7L3] 4.76

Please indicate protein stability index recorded for ACLIVMFLPEKKDTGVFAVVNSHS [SLC22A15] 2.12

Determine from records and report protein stability index for YVRRLDFFEKPDYDYLRKLFTDLF [CSNK1G3] 2.06
